target: Nuclease P1 (Penicillium citrinum, UniProt P24289); test: Stability in presence of nuclease P1 assessed as parent compound remaining level at 7 ug incubated for 2 hrs by HPLC analysis; type: ADME; settings: nuclease P1 (isolated enzyme), at 7 µg, time 2 hrs, read-out: Stabilty
Sequence (P24289 whole entry): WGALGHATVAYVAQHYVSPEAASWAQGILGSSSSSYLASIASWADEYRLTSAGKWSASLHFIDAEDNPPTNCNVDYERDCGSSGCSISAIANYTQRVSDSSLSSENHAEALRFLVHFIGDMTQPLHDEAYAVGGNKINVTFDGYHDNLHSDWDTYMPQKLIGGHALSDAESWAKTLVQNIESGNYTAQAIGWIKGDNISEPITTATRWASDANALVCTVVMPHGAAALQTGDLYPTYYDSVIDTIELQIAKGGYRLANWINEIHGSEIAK
measurement name: remaining at 2 h, 7 ug (%)
Note: unit % is implicit; provide only the numeric part.

remaining at 2 h, 7 ug for Nc1nc2c(ncn2[C@@H]2O[C@@H]3COP(=O)(O)O[C@H]4[C@@H](O)[C@H](n5cnc6c(N)ncnc65)O[C@@H]4COP(=O)(O)O[C@@H]2[C@@H]3O)c(=O)[nH]1 is 83

* * *

molecular target: UniProt:Q86WV6; assay: Activation of STING in human blood assessed as induction of type I IFNs incubated for 18 to 20 hrs by QUANTI-Blue assay
Sequence (Q86WV6 whole entry): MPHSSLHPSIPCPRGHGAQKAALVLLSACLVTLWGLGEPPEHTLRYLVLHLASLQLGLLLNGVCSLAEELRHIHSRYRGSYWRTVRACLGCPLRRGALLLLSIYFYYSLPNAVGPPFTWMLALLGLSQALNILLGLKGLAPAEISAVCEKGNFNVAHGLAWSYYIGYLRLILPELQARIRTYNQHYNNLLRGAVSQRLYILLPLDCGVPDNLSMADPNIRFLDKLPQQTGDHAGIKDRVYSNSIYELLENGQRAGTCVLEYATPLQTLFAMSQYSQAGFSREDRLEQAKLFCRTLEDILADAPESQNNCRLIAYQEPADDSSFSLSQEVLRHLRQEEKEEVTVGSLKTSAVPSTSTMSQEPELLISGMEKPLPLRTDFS
measurement name: EC50 (µM)
Note: unit µM is implicit; provide only the numeric part.

EC50 for Nc1ncnc2c1ncn2[C@H]1C[C@@H]2OP(=O)(S)OC[C@H]3O[C@@H](n4cnc5c(O)ncnc54)[C@H](F)[C@@H]3OP(=O)(S)OC[C@H]2O1 (some centres not stated) is 4.7

EC50 for Nc1ncnc2c1ncn2[C@H]1C[C@@H]2OP(=O)(O)OC[C@H]3O[C@@H](n4cnc5c(O)ncnc54)[C@H](F)[C@@H]3OP(=O)(O)OC[C@H]2O1 is 2.8

EC50 for Nc1ncnc2c1ncn2[C@@H]1O[C@@H]2COP(=O)(O)O[C@H]3[C@@H](F)[C@H](n4cnc5c(O)ncnc54)O[C@@H]3COP(=O)(O)O[C@H]2[C@H]1F is 0.7

EC50 for Nc1ncnc2c1ncn2[C@@H]1O[C@@H]2COP(=O)(S)O[C@H]3[C@@H](O)[C@H](n4cnc5c(O)ncnc54)O[C@@H]3COP(=O)(S)O[C@H]2[C@H]1O (some centres not stated) is 10.6

EC50 for Nc1ncnc2c1ncn2[C@@H]1O[C@@H]2COP(=O)(S)O[C@H]3[C@@H](F)[C@H](n4cnc5c(O)ncnc54)O[C@@H]3COP(=O)(S)O[C@H]2[C@H]1F (some centres not stated) is 0.4

EC50 for Nc1ncnc2c1ncn2[C@H]1C[C@@H]2OP(=O)(O)OC[C@H]3O[C@@H](n4cnc5c(O)ncnc54)C[C@@H]3OP(=O)(O)OC[C@H]2O1 is 9.9

EC50 for Nc1ncnc2c1ncn2[C@@H]1O[C@@H]2COP(=O)(O)O[C@H]3C[C@H](n4cnc5c(O)ncnc54)O[C@@H]3COP(=O)(O)O[C@H]2[C@H]1F is 3.6
